Origin of the recorded values: PubChem BioAssay AID1963869

System: KRAS patient-derived spheroids with HUVEC/MSC, viability;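 note: spheroids exposed to agents for 7 days; 100% = DMSO vehicle control viability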
Test: Anticancer human tumor 323965-272-R-J2-PDC patient-derived pancreatic carcinoma cell line growth inhibition [KRAS2]
Settings: compound 0.316 µM; stronger effect = lower value
viability, T/C values by entry

Consider the worked cases shown below.
C=CC(=O)N1CCN(c2nc(=O)n(-c3c(C)ccnc3C(C)C)c3nc(-c4c(O)cccc4F)c(F)cc23)C(C)C1 (stereo not drawn) : 58.4% [middle of 17 runs]
O=C(c1cc(Cc2n[nH]c(=O)c3ccccc23)ccc1F)N1CCN(C(=O)C2CC2)CC1 : 96.4% [middle of 5 runs]
COc1cc(Nc2ncc3c(n2)-c2ccc(Cl)cc2C(c2c(F)cccc2OC)=NC3)ccc1C(=O)O : 45.2% [middle of 5 runs]
CCN1CCN(Cc2ccc(Nc3ncc(F)c(-c4cc(F)c5nc(C)n(C(C)C)c5c4)n3)nc2)CC1 : 62.1% [middle of 5 runs]
COc1cc2nc(C)nc(NC(C)c3cc(N)cc(C(F)(F)F)c3)c2cc1OC1CCOC1 (stereo not drawn) : 75.7% [middle of 17 runs]

Query: # lookup: viability, T/C of CC1OCC2(CCN(c3cnc(Sc4ccnc(N)c4Cl)c(N)n3)CC2)C1N (stereo not drawn)
Response: 60% [middle of 19 runs]

Query: Field entry: COc1cc2nccc(Oc3ccc(NC(=O)C4(C(=O)Nc5ccc(F)cc5)CC4)cc3)c2cc1OC
Response: 96.2% [middle of 5 runs]

Query: Same again, this time with CC1COCCN1c1cc(-c2ccnn2C)c2ccnc(-c3ccn[nH]3)c2n1 (stereo not drawn)
Response: 21.9% [middle of 5 runs]
